procedureText: qHTS drug screen for cell cycle checkpoint inhibitors in PARPi-resistant BRCA-mutant ovarian cancer cell lines. (AID 1963452)
measurementContext: PEO1/OlaR viability, CellTiter-Glo luminescence, 96 h; measured here: PEO1 parental Z-AUC; stronger effect = lower value
Please map values of Z-AUC to classes as shown: bucket 1 (below -0.5), bucket 2 (-0.5 to below -0.07), bucket 3 (-0.07 or more)

Below, 5 molecules whose answers are already recorded.
| molecule | assignedClass |
| --- | --- |
| NC(=O)c1cc(F)cc2c1C(=O)N(C1CCN(C3CCC(F)(F)CC3)CC1)C2 | bucket 1 |
| CCNCCc1ccc(CN(CC)c2cc(OC)ccc2[C@@H]2CCc3cc(O)ccc3C2)cc1 | bucket 1 |
| O=c1c(-c2ccc(O)cc2)coc2cc(O[C@@H]3O[C@H](CO)[C@@H](O)[C@H](O)[C@H]3O)ccc12 | bucket 3 |
| CN1CCN(CCCNc2ncc(Cl)c(-c3cc4c(C(=O)NC5CC5)cccc4s3)n2)CC1 | bucket 2 |
| C[C@@H](C(=O)Nc1ccc(Cl)cc1)C1CCC(c2ccnc3ccc(F)cc23)CC1 (some centres undefined) | bucket 1 |

Hi, small favor: classify C=CC(=O)Nc1ccc(F)c(-c2ncnc3[nH]cc(C(=O)OCC)c23)c1 by its Z-AUC when you get a moment.
bucket 3

Note: place this molecule into its band. Item: CO[C@H]1/C=C/O[C@@]2(C)Oc3c(C)c(O)c4c(O)c(c(/C=N/N5CCN(C)CC5)c(O)c4c3C2=O)NC(=O)/C(C)=C\C=C\[C@H](C)[C@H](O)[C@@H](C)[C@@H](O)[C@@H](C)[C@H](OC(C)=O)[C@@H]1C
bucket 3

GET /class?item= Cc1ccc(-n2nc(C(C)(C)C)cc2NC(=O)NCc2cc(F)ccc2Oc2ccc3c(cnn3CCO)c2)cc1
bucket 3

Pick a category. Item: C/C=C/C/C=C/CCC(=O)[C@H]1O[C@H]1C(N)=O
bucket 2

Dear colleague, I would appreciate it if you could identify the bin for N#Cc1ccc(Cn2cncc2CN2CCN(c3cccc(Cl)c3)C(=O)C2)cc1 and reply at your convenience.
bucket 2

Classify this molecule: CCc1cc(/C(C)=N/OCc2ccc(C3CCCCC3)c(C(F)(F)F)c2)ccc1CN1CC(C(=O)O)C1
bucket 2

For the record Cc1ncc(NC(=O)c2cccc(C(F)(F)F)c2)cc1-c1cnc(OC2CCOCC2)c(N2CCOCC2)c1 , report the class its Z-AUC corresponds to.
bucket 1

Data origin, for the record: PubChem BioAssay (NCATS)
